- Test system: SK-MEL-5 melanoma
- Measurement Description: NCI-60 one-dose screen, 48 h (100 = growth as untreated, 0 = no growth, -100 = all killed)
- Details: 10 µM
Compounds without any hit were thinned out: in the full panel of roughly 83,000, 20% have a hit. Activity calls are given as the source filed them. Rule for the calls: active = growth percent below 10; inactive = the rest.
Each entry below carries its recorded growth.

Before answering, review these 3 worked examples.
Molecule	growth
CC1/C=C/C=C/C=C/C=C/C=C/C=C/C=C/C(O[C@@H]2O[C@H](C)[C@H](O)[C@@H](O)[C@@H]2N)CC(O)C(C(=O)O)C(O)CC(=O)CC(O)CC(O)CC(O)CC(=O)CCCC(=O)CC(=O)OC1C(C)CC(C)C(O)CC(=O)c1ccc(N)cc1 (stereo not given in full)	-99% (active)
O=C(CCl)Nc1ccc(Cc2ccc(NC(=O)CCl)cc2)cc1	-88.5% (active)
COc1ccc(Cc2cnc(N)nc2N)cc1OC	101% (inactive)

Tell me the measured growth of Cc1cc(SCc2ccccc2)nc(N)n1 , please.
117% (inactive)

Tell me the measured growth of COc1ccccc1-n1c(-c2sc(NC(C)=O)nc2C)n[nH]c1=S , please.
105% (inactive)

----------
- Test system: LOX IMVI melanoma
- Measurement Description: NCI-60 one-dose screen, 48 h
- Details: 10 µM
About 83,000 compounds went through this panel and 20% of them were active in at least one assay; those are over-represented in the sample as a whole. The source made the active and inactive calls. The calls were made as follows: active = growth percent below 10; inactive = the rest.
Thanks in advance; please answer with one of these: y = active, n = inactive

Molecule	Label Class
COc1ccc(-c2cc(-c3ccc(Cl)cc3)nc(SCCCC(=O)NO)n2)cc1OC	y
COc1ccc2nc3cc(Cl)ccc3c(NCCCNCCO)c2c1	y
CCn1c(SCc2ccc(C)cc2)nnc1-c1nn(-c2ccc(Cl)cc2Cl)c(-c2ccc(Cl)cc2)c1C	y

Field: outcome | Entry: Cc1ccc(/C=C2/C(=O)N(C)c3ccc(S(=O)(=O)Nc4ccc(C(C)(C)C)cc4)cc32)s1
n

Field: outcome | Entry: C=C1CCC2(C#N)[C@H]3[C@H](CC[C@@H]2C)[C@@H](C)C[C@@H](CC(C)(C)NC(=O)CN2CCC2=O)[C@H]13 (stereo not given in full)
n

----------
- System: HCT-15 colon
- Measurement Description: NCI-60 one-dose screen, 48 h (100 = growth as untreated, 0 = no growth, -100 = all killed)
- Details: 10 µM
Compounds without any hit were thinned out: in the full panel of roughly 83,000, 20% have a hit. Active and inactive are the calls of the source. How the source made its calls: active means growth percent below 10; inactive means the rest.
Recorded Endpoint: growth

Molecule	growth
CN1CCc2c(sc3nc4n(-c5ccc(Cl)cc5)cnn4c(=O)c23)C1	104% (inactive)
COc1cc(CNC(=O)C2CSC3(C)c4ccccc4C(=O)N23)cc(OC)c1OC (centres undefined)	106% (inactive)
O=C(Nc1nc(-c2ccccc2)nc2c1sc(=S)n2-c1ccccc1)C(F)(F)F	88.4% (inactive)

Notebook entry, HCT-15 colon assay: growth of CCOc1ccccc1/C=N\N=C\c1ccccc1O = ?
100% (inactive)

Notebook entry, HCT-15 colon assay: growth of COc1ccc(-c2cc(-c3cc(OC)ccc3OC)nc(N)c2C#N)cc1 = ?
51.2% (inactive)

Notebook entry, HCT-15 colon assay: growth of CCN1C(=O)CC(SC2CC(=O)N(CC)C2=O)C1=O (centres undefined) = ?
105% (inactive)

Notebook entry, HCT-15 colon assay: growth of CCCc1cn(CC(=O)Nc2nc3ccccc3s2)nn1 = ?
108% (inactive)

Notebook entry, HCT-15 colon assay: growth of Cn1cnc([N+](=O)[O-])c1/C=C1\Oc2ccc(Br)cc2C1=O = ?
70.4% (inactive)

Notebook entry, HCT-15 colon assay: growth of CCCCc1oc2ccccc2c1C(=O)c1cc(I)c(OCCN(CC)CC)c(I)c1 = ?
-50.5% (active)

Notebook entry, HCT-15 colon assay: growth of CCCCC/C=C/C/C=C/CCCCCCCC1=NC(C)(C)CN1C(C)C = ?
-3.26% (active)
